tested on: ACP with the sulfated substrate; assay: TE point mutant activity assay (liberation of holo ACP, HPLC); assay type: biochemical, Lyngbya majuscula; conditions: relative to wild type CurM TE and free hydrolysis without enzyme, quenched after 1 min
assay metric: % Activity (%)

molecule	data value
N267A: CurM TE mutant of conserved Asn next to the catalytic His (protein) MEEKFLEFGGNQICLCSWGSPEHPVVLCIHGILEQGLAWQEVALPLAAQGYRVVAPDLFGHGRSSHLEMVTSYSSLTFLAQIDRVIQELPDQPLLLVGHSMGAMLATAIASVRPKKIKELILVELPLPAEESKKESAVNQLTTCLDYLSSTPQHPIFPDVATAASRLRQAIPSLSEEFSYILAQRITQPNQGGVRWSWDAIIRTRSILGLNNLPGGRSQYLEMLKSIQVPTTLVYGDSSKLNRPEDLQQQKMTMTQAKRVFLSGGHALHIDAAAALASLILTS	38.4
